B1: Emerin (Homo sapiens), P50402 (parent)
chain: MDNYADLSDTELTTLLRRYNIPHGPVVGSTRRLYEKKIFEYETQRRRLSPPSSSAASSYSFSDLNSTRGDADMYDLPKKEDALLYQSKGYNDDYYEESYFTTRTYGEPESAGPSRAVRQSVTSFPDADAFHHQVHDDDLLSSSEEECKDRERPMYGRDSAYQSITHYRPVSASRSSLDLSYYPTSSSTSFMSSSSSSSSWLTRRAIRPENRAPGAGLGQDRQVPLWGQLLLFLVFVIVLFFIYHFMQAEEGNPF

# Variants of: B1
# particulars: with ccd33_human CCDC33, Q8N5R6
# Sequence (Q8N5R6 whole entry): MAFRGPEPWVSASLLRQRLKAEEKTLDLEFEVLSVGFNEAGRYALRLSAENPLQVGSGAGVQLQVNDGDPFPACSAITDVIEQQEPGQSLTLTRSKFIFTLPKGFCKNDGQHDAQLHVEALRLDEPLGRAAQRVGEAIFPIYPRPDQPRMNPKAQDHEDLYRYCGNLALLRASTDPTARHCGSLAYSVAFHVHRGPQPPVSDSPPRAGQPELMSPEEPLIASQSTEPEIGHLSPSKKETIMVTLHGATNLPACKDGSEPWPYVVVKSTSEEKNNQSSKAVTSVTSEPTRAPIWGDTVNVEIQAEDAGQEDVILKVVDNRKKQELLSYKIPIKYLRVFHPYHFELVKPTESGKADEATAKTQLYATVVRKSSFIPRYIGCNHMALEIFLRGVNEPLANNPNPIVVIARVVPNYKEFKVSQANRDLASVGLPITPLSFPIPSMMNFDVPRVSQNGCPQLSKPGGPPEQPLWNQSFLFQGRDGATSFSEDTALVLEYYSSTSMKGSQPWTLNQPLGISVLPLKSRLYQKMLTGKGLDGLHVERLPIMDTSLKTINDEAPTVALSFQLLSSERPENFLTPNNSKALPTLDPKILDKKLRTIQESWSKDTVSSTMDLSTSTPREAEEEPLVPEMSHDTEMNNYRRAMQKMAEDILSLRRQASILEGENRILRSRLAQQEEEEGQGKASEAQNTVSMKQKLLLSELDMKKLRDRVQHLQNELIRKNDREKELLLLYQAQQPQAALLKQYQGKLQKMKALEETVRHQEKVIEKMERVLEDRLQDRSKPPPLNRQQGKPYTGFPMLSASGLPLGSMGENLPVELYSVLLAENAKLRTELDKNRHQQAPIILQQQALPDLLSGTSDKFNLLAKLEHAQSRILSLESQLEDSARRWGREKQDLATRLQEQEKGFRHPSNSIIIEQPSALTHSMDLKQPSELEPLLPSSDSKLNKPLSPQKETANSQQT
quantity kind: effect of a mutation on the interaction

P183H :: with no effect
S54F :: with no effect
D72V :: with no effect
P183T :: with no effect
